Each entry below carries its recorded viability, T/C.
- Tested on: 616215-338-R-J1-PDC complex spheroid viability
- Assay Notes: Anticancer human tumor 616215-338-R-J1-PDC patient-derived colon adenocarcinoma cell line growth inhibition [RAS]
- Experimental Context: compound 0.316 µM; active compounds read low
Test Readout: viability, T/C

| Compound | Recorded Result |
| --- | --- |
| O=C(c1ccc(F)c(F)c1Nc1ccc(I)cc1F)N1CC(O)([C@@H]2CCCCN2)C1 | 19.9% [middle of 4 runs] |
| CC(C)NCC(C(=O)N1CCN(c2ncnc3c2C(C)CC3O)CC1)c1ccc(Cl)cc1 (centres undefined) | 100% [middle of 4 runs] |
| C#Cc1c(F)ccc2cc(O)cc(-c3ncc4c(N5CC6CCC(C5)N6)nc(OCC56CCCN5CC(F)C6)nc4c3F)c12 (centres undefined) | 110% [middle of 8 runs] |
| CCC(CC)c1cc(NC2CCC(N)C2)n2nccc2n1 (centres undefined) | 93.8% [middle of 4 runs] |
| C=CC(=O)Nc1cc(Nc2nccc(-c3cn(C)c4ccccc34)n2)c(OC)cc1N(C)CCN(C)C | 109% [middle of 4 runs] |
| C[C@@H](NC(=O)c1ncnc(N)c1Cl)c1ncc(C(=O)Nc2cc(C(F)(F)F)c(Cl)cn2)s1 | 112% [middle of 4 runs] |
| CC(Nc1ccc2c(c1)OCCn1cc(N3C(=O)OCC3C(F)F)nc1-2)C(N)=O (centres undefined) | 110% [middle of 4 runs] |
| Cc1nc(N2CCC3(CC2)COC(C)C3N)c(CO)nc1Sc1ccnc(N)c1Cl (centres undefined) | 109% [middle of 4 runs] |
| Nc1ccn(C2OC(CO)C(O)C2(F)F)c(=O)n1 (centres undefined) | 15.4% [middle of 4 runs] |

---

- Tested on: 616215-338-R-J1-PDC complex spheroid viability
- Assay Notes: Anticancer human tumor 616215-338-R-J1-PDC cell line growth inhibition [RAS];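 further: spheroids exposed to agents for seven days before viability readout; 100% = DMSO vehicle control viability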
- Experimental Context: second compound 0.003 µM; first compound 3.16 µM; active compounds read low

| Compound | Subject Of Test | viability, T/C |
| --- | --- | --- |
| CC(C)NCC(C(=O)N1CCN(c2ncnc3c2C(C)CC3O)CC1)c1ccc(Cl)cc1 (stereo not drawn) + CCn1c(-c2cc(N3CCN(C)CC3)cnc2C(C)OC)c2c3cc(ccc31)-c1csc(n1)CC(NC(=O)C1CC1C)C(=O)N1CCCC(N1)C(=O)OCC(C)(C)C2 | 616215-338-R-J1-PDC complex spheroid viability | 67.5% |
| C[C@@H](NC(=O)c1ncnc(N)c1Cl)c1ncc(C(=O)Nc2cc(C(F)(F)F)c(Cl)cn2)s1 + CCn1c(-c2cccnc2C(C)OC)c2c3cc(ccc31)N1CCOC(CC(NC(=O)C(C(C)C)N(C)C(=O)C3(F)CCN(C(=O)C#CC(C)(C)N(C)C)CC3)C(=O)N3CCCC(N3)C(=O)OCC(C)(C)C2)C1 | 616215-338-R-J1-PDC complex spheroid viability | 107% |
| CC(Nc1ccc2c(c1)OCCn1cc(N3C(=O)OCC3C(F)F)nc1-2)C(N)=O (stereo not drawn) + CCn1c(-c2cccnc2C(C)OC)c2c3cc(ccc31)N1CCOC(CC(NC(=O)C(C(C)C)N(C)C(=O)C3(F)CCN(C(=O)C#CC(C)(C)N(C)C)CC3)C(=O)N3CCCC(N3)C(=O)OCC(C)(C)C2)C1 | 616215-338-R-J1-PDC complex spheroid viability | 99.7% |
| CC(Nc1ccc2c(c1)OCCn1cc(N3C(=O)OCC3C(F)F)nc1-2)C(N)=O (stereo not drawn) + CCn1c(-c2cc(N3CCN(C)CC3)cnc2C(C)OC)c2c3cc(ccc31)-c1csc(n1)CC(NC(=O)C1CC1C)C(=O)N1CCCC(N1)C(=O)OCC(C)(C)C2 | 616215-338-R-J1-PDC complex spheroid viability | 91.4% |
| NC1c2ccccc2OC12CCN(c1cnc3c(N4CCCc5ncccc54)n[nH]c3n1)CC2 (stereo not drawn) + CCn1c(-c2cccnc2C(C)OC)c2c3cc(ccc31)N1CCOC(CC(NC(=O)C(C(C)C)N(C)C(=O)C3(F)CCN(C(=O)C#CC(C)(C)N(C)C)CC3)C(=O)N3CCCC(N3)C(=O)OCC(C)(C)C2)C1 | 616215-338-R-J1-PDC complex spheroid viability | 64.2% |
| CCC(CC)c1cc(NC2CCC(N)C2)n2nccc2n1 (stereo not drawn) + CCn1c(-c2cc(N3CCN(C)CC3)cnc2C(C)OC)c2c3cc(ccc31)-c1csc(n1)CC(NC(=O)C1CC1C)C(=O)N1CCCC(N1)C(=O)OCC(C)(C)C2 | 616215-338-R-J1-PDC complex spheroid viability | 0.37% |
| CC(=O)OC12COC1CC(O)C1(C)C(=O)C(O)C3=C(C)C(OC(=O)C(O)C(NC(=O)OC(C)(C)C)c4ccccc4)CC(O)(C(OC(=O)c4ccccc4)C21)C3(C)C (stereo not drawn) + CCn1c(-c2cccnc2C(C)OC)c2c3cc(ccc31)N1CCOC(CC(NC(=O)C(C(C)C)N(C)C(=O)C3(F)CCN(C(=O)C#CC(C)(C)N(C)C)CC3)C(=O)N3CCCC(N3)C(=O)OCC(C)(C)C2)C1 | 616215-338-R-J1-PDC complex spheroid viability | 24.2% |
| CC(=O)OC12COC1CC(O)C1(C)C(=O)C(O)C3=C(C)C(OC(=O)C(O)C(NC(=O)OC(C)(C)C)c4ccccc4)CC(O)(C(OC(=O)c4ccccc4)C21)C3(C)C (stereo not drawn) + CCn1c(-c2cc(N3CCN(C)CC3)cnc2C(C)OC)c2c3cc(ccc31)-c1csc(n1)CC(NC(=O)C1CC1C)C(=O)N1CCCC(N1)C(=O)OCC(C)(C)C2 | 616215-338-R-J1-PDC complex spheroid viability | 18.8% |

---

- System: 616215-338-R-J1-PDC complex spheroid viability
- Assay Notes: Anticancer human tumor 616215-338-R-J1-PDC cell line growth inhibition [RAS]; active = viability on the fitted dose curve at most 10% of control; inactive = the rest;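 further: spheroids exposed to agents for seven days before viability readout; 100% = DMSO vehicle control viability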
- Experimental Context: second compound 10 µM; first compound 10 µM
Possible outcomes: active, inactive

| Compound | Label Class |
| --- | --- |
| CCC(CC)c1cc(NC2CCC(N)C2)n2nccc2n1 (stereo unspecified) + C#Cc1c(F)ccc2cc(O)cc(-c3ncc4c(N5CC6CCC(C5)N6)nc(OCC56CCCN5CC(F)C6)nc4c3F)c12 | active |
| CC(Nc1ccc2c(c1)OCCn1cc(N3C(=O)OCC3C(F)F)nc1-2)C(N)=O (stereo unspecified) + C#Cc1c(F)ccc2cc(O)cc(-c3ncc4c(N5CC6CCC(C5)N6)nc(OCC56CCCN5CC(F)C6)nc4c3F)c12 | inactive |
| C[C@@H](NC(=O)c1ncnc(N)c1Cl)c1ncc(C(=O)Nc2cc(C(F)(F)F)c(Cl)cn2)s1 + C#Cc1c(F)ccc2cc(O)cc(-c3ncc4c(N5CC6CCC(C5)N6)nc(OCC56CCCN5CC(F)C6)nc4c3F)c12 | inactive |
| NC1c2ccccc2OC12CCN(c1cnc3c(N4CCCc5ncccc54)n[nH]c3n1)CC2 (stereo unspecified) + C#Cc1c(F)ccc2cc(O)cc(-c3ncc4c(N5CC6CCC(C5)N6)nc(OCC56CCCN5CC(F)C6)nc4c3F)c12 | inactive |
| CC1(O)CCCC1n1c(=O)c(C(F)F)cc2cnc(NC3CCN(S(C)(=O)=O)CC3)nc21 (stereo unspecified) + C#Cc1c(F)ccc2cc(O)cc(-c3ncc4c(N5CC6CCC(C5)N6)nc(OCC56CCCN5CC(F)C6)nc4c3F)c12 | inactive |
| Cc1nc(N2CCC3(CC2)COC(C)C3N)c(CO)nc1Sc1ccnc(N)c1Cl (stereo unspecified) + C#Cc1c(F)ccc2cc(O)cc(-c3ncc4c(N5CC6CCC(C5)N6)nc(OCC56CCCN5CC(F)C6)nc4c3F)c12 | inactive |

---

- System: 616215-338-R-J1-PDC complex spheroid viability
- Assay Notes: Anticancer human tumor 616215-338-R-J1-PDC cell line growth inhibition [RAS];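 further: spheroids exposed to agents for seven days before viability readout; 100% = DMSO vehicle control viability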
- Experimental Context: second compound 0.03 µM; first compound 0.0316 µM; active compounds read low

| Molecule | Subject Of Test | viability, T/C [%] |
| --- | --- | --- |
| CCN1CCN(Cc2ccc(Nc3ncc(F)c(-c4cc(F)c5nc(C)n(C(C)C)c5c4)n3)nc2)CC1 + CCn1c(-c2cc(N3CCN(C)CC3)cnc2C(C)OC)c2c3cc(ccc31)-c1csc(n1)CC(NC(=O)C1CC1C)C(=O)N1CCCC(N1)C(=O)OCC(C)(C)C2 | 616215-338-R-J1-PDC complex spheroid viability | 39.4 |
| Nc1ccn(C2OC(CO)C(O)C2(F)F)c(=O)n1 (centres undefined) + CCn1c(-c2cccnc2C(C)OC)c2c3cc(ccc31)N1CCOC(CC(NC(=O)C(C(C)C)N(C)C(=O)C3(F)CCN(C(=O)C#CC(C)(C)N(C)C)CC3)C(=O)N3CCCC(N3)C(=O)OCC(C)(C)C2)C1 | 616215-338-R-J1-PDC complex spheroid viability | 22.2 |
| CC1(O)CCCC1n1c(=O)c(C(F)F)cc2cnc(NC3CCN(S(C)(=O)=O)CC3)nc21 (centres undefined) + CCn1c(-c2cccnc2C(C)OC)c2c3cc(ccc31)N1CCOC(CC(NC(=O)C(C(C)C)N(C)C(=O)C3(F)CCN(C(=O)C#CC(C)(C)N(C)C)CC3)C(=O)N3CCCC(N3)C(=O)OCC(C)(C)C2)C1 | 616215-338-R-J1-PDC complex spheroid viability | 118 |
| O=C(c1ccc(F)c(F)c1Nc1ccc(I)cc1F)N1CC(O)([C@@H]2CCCCN2)C1 + CCn1c(-c2cc(N3CCN(C)CC3)cnc2C(C)OC)c2c3cc(ccc31)-c1csc(n1)CC(NC(=O)C1CC1C)C(=O)N1CCCC(N1)C(=O)OCC(C)(C)C2 | 616215-338-R-J1-PDC complex spheroid viability | 21.2 |
